Reference source: ChEMBL document CHEMBL5244202

- Target Entity: Toll-like receptor 7 (Homo sapiens)
- Sequence (Q9NYK1 whole entry): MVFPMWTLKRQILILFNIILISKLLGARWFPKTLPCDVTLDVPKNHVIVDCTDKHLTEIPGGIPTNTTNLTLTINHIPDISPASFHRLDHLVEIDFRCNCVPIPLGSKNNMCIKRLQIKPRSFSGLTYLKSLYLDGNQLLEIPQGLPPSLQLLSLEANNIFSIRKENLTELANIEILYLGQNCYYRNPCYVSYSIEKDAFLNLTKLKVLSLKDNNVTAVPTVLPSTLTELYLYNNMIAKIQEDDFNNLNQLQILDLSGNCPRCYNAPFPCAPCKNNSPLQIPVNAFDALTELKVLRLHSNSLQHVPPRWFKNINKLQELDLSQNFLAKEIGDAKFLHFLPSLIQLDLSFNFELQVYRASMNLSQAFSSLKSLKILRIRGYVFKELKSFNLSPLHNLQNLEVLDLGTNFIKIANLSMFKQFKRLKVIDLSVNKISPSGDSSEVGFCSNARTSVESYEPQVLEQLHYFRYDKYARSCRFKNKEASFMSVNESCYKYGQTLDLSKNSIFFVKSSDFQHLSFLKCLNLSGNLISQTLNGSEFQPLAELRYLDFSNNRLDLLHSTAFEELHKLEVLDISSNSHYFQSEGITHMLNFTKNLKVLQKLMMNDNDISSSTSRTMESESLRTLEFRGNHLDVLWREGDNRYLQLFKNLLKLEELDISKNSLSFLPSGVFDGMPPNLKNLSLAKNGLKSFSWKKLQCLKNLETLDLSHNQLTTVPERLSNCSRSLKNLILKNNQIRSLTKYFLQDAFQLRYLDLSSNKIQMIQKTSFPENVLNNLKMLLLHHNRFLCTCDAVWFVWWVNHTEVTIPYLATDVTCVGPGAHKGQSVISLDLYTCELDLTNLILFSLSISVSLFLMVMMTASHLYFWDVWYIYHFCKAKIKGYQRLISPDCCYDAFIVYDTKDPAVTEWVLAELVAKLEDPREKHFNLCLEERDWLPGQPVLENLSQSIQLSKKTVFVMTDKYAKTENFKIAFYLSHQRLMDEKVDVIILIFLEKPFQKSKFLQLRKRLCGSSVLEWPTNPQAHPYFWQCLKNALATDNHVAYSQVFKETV
- Assay Summary: Agonist activity at human TLR7 in HEK-Blue hTLR7 cells assessed as activation of NFkappaB by SEAP reporter gene based spectrophotometry assay
- Assay type: cell-based
- Study Conditions: hek-blue htlr7
Each entry falls in a class defined on EC50; the bands are bottom range: < 4 µM; center range: ≥ 4 µM and < 7 µM; top range: ≥ 7 µM

[
  {
    "Compound Structure String": "CCCCCc1nc2c(N)nc3ccccc3c2s1",
    "Assigned Label": "center range"
  },
  {
    "Compound Structure String": "Nc1nc2ccccc2c2sc(CCCC(F)(F)F)nc12",
    "Assigned Label": "bottom range"
  },
  {
    "Compound Structure String": "CCCCc1nc2c(NC=O)nc3ccccc3c2s1",
    "Assigned Label": "bottom range"
  },
  {
    "Compound Structure String": "Cc1nc2c(N)nc3ccccc3c2s1",
    "Assigned Label": "top range"
  },
  {
    "Compound Structure String": "CCc1nc2c(N)nc3ccccc3c2s1",
    "Assigned Label": "center range"
  },
  {
    "Compound Structure String": "CCCCc1nc2c(NC(=O)CCC)nc3ccccc3c2s1",
    "Assigned Label": "bottom range"
  },
  {
    "Compound Structure String": "CCCc1nc2c(NC(=O)CN=[N+]=[N-])nc3ccccc3c2s1",
    "Assigned Label": "bottom range"
  },
  {
    "Compound Structure String": "CC(C)c1nc2c(N)nc3ccccc3c2s1",
    "Assigned Label": "top range"
  },
  {
    "Compound Structure String": "CC[C@H](C)Cc1nc2c(N)nc3ccccc3c2s1",
    "Assigned Label": "center range"
  },
  {
    "Compound Structure String": "CCCc1nc2c(N)nc3ccc(N=[N+]=[N-])cc3c2s1",
    "Assigned Label": "top range"
  },
  {
    "Compound Structure String": "Nc1nc2ccccc2c2sc(CCC(F)(F)F)nc12",
    "Assigned Label": "bottom range"
  }
]

* * *

- Target Entity: Toll-like receptor 8 (Homo sapiens)
- Assay Summary: Agonist activity at human TLR8 (27 to 287 residues) in HEK-Blue hTLR8 cells assessed as induction of NFkappaB by SEAP reporter gene based spectrophotometry assay
- Assay type: cell-based
pEC50: −log10 of the molar value.

[
  {
    "Compound Structure String": "CC(C)Oc1cc2ccccc2nc1N",
    "pEC50": 4.00
  },
  {
    "Compound Structure String": "CCOc1cc2ccccc2nc1N",
    "pEC50": 4.00
  },
  {
    "Compound Structure String": "COc1cc2ccccc2nc1N",
    "pEC50": 4.00
  }
]

* * *

- Target Entity: Toll-like receptor 7 (Homo sapiens)
- Assay Summary: Agonist activity at recombinant human TLR7 transfected in HEK293 cells assessed as induction of SEAP production incubated overnight by SEAP reporter gene based assay
- Type: cell-based

[
  {
    "Compound Structure String": "CCC[C@@H](CO)Nc1nc(N)nc(C)c1Cc1ccc(CN2CCCC2)cc1OC",
    "Bound Operator": "<",
    "EC50 (nM)": 5.89
  },
  {
    "Compound Structure String": "CCC[C@@H](CO)Nc1nc(N)nc(C)c1Cc1ccc(CNCCO)cc1OC",
    "Bound Operator": "=",
    "EC50 (nM)": 95.5
  },
  {
    "Compound Structure String": "CCC[C@@H](CCO)Nc1nc(N)nc(C)c1Cc1ccc(CN2CCCC2)cc1OC",
    "Bound Operator": "<",
    "EC50 (nM)": 1.95
  },
  {
    "Compound Structure String": "CCC[C@@H](CCO)Nc1nc(N)nc(C)c1Cc1ccc(CN(C)CC(N)=O)cc1OC",
    "Bound Operator": "=",
    "EC50 (nM)": 55
  },
  {
    "Compound Structure String": "CCC[C@@H](CCO)Nc1nc(N)nc(C)c1Cc1ccc(CNCCO)cc1OC",
    "Bound Operator": "=",
    "EC50 (nM)": 9.77
  },
  {
    "Compound Structure String": "CCC[C@@H](CCO)Nc1nc(N)nc(C)c1Cc1ccc(CNCC(N)=O)cc1OC",
    "Bound Operator": "=",
    "EC50 (nM)": 44.7
  },
  {
    "Compound Structure String": "CCC[C@@H](CO)Nc1nc(N)nc(C)c1Cc1ccc(CN2CCNCC2)cc1OC",
    "Bound Operator": "=",
    "EC50 (nM)": 63.1
  },
  {
    "Compound Structure String": "CCC[C@@H](CCO)Nc1nc(N)nc(C)c1Cc1ccc(CNC2CN(C)C2)cc1OC",
    "Bound Operator": "=",
    "EC50 (nM)": 19.1
  },
  {
    "Compound Structure String": "CCC[C@@H](CCO)Nc1nc(N)nc(C)c1Cc1ccc(CNC2CNC2)cc1OC",
    "Bound Operator": "=",
    "EC50 (nM)": 19.5
  },
  {
    "Compound Structure String": "CCC[C@@H](CO)Nc1nc(N)nc(C)c1Cc1ccc(CNC2CN(C)C2)cc1OC",
    "Bound Operator": "=",
    "EC50 (nM)": 155
  }
]

* * *

- Target Entity: UniProtKB Q9NYK1
- Assay Summary: Agonist activity at human TLR7 by reporter cell based assay
EC50 strictly under 300 nM means 1; at 300 nM or over means -1.

[
  {
    "Compound Structure String": "COCCc1nc2c(N)nc3ccccc3c2n1CCCN(Cc1ccc(CC(=O)OC)cc1)C(=O)CCN(C)C",
    "Target Entity": "UniProtKB Q9NYK1",
    "Assigned Label": 1
  },
  {
    "Compound Structure String": "CCCCc1nc2c(N)nc3ccccc3c2n1CCCN(CCCN1CCOCC1)Cc1cccc(C(=O)OC)c1",
    "Target Entity": "UniProtKB Q9NYK1",
    "Assigned Label": 1
  },
  {
    "Compound Structure String": "CCCCCNc1nc(N)nc(C)c1CCCN(Cc1ccc(CC(=O)OC)cc1)C(=O)CC1CCN(C)CC1",
    "Target Entity": "UniProtKB Q9NYK1",
    "Assigned Label": -1
  },
  {
    "Compound Structure String": "CCCCc1nc2c(N)nc3ccccc3c2n1CCCN(Cc1cccc(C(=O)OC)c1)C(=O)CN(C)C",
    "Target Entity": "UniProtKB Q9NYK1",
    "Assigned Label": 1
  },
  {
    "Compound Structure String": "CCCCc1nc2c(N)nc3ccccc3c2n1CCCN(Cc1cccc(C(=O)OC)c1)C(=O)CN(CCC)CCC",
    "Target Entity": "UniProtKB Q9NYK1",
    "Assigned Label": 1
  }
]

* * *

- Target Entity: Toll-like receptor 7 (Homo sapiens)
- Assay Summary: Agonist activity at human TLR7 by reporter cell based assay

[
  {
    "Compound Structure String": "CCCC[C@@H](CCO)Nc1nc(N)nc(C)c1Cc1ccc(CC(=O)OCCCCN2CCN(C)CC2)cc1F",
    "EC50": "25.1 nM"
  },
  {
    "Compound Structure String": "CCCCc1nc2c(N)nc3ccccc3c2n1CCCN(Cc1cccc(C(=O)OC)c1)C(=O)CN1CCC(O)CC1",
    "EC50": "501 nM"
  },
  {
    "Compound Structure String": "CCCCc1nc2c(N)nc3ccccc3c2n1CCCN(Cc1cccc(C(=O)OC)c1)C(=O)CN1CCCC1",
    "EC50": "63.1 nM"
  },
  {
    "Compound Structure String": "CCCC[C@@H](CCO)Nc1nc(N)nc(C)c1Cc1ccc(CC(=O)OCCC2CCN(C)CC2)cc1F",
    "EC50": "31.6 nM"
  }
]

* * *

- Target Entity: Toll-like receptor 8 (Homo sapiens, UniProt Q9NR97)
- Sequence (Q9NR97 whole entry, the tested form may be a part): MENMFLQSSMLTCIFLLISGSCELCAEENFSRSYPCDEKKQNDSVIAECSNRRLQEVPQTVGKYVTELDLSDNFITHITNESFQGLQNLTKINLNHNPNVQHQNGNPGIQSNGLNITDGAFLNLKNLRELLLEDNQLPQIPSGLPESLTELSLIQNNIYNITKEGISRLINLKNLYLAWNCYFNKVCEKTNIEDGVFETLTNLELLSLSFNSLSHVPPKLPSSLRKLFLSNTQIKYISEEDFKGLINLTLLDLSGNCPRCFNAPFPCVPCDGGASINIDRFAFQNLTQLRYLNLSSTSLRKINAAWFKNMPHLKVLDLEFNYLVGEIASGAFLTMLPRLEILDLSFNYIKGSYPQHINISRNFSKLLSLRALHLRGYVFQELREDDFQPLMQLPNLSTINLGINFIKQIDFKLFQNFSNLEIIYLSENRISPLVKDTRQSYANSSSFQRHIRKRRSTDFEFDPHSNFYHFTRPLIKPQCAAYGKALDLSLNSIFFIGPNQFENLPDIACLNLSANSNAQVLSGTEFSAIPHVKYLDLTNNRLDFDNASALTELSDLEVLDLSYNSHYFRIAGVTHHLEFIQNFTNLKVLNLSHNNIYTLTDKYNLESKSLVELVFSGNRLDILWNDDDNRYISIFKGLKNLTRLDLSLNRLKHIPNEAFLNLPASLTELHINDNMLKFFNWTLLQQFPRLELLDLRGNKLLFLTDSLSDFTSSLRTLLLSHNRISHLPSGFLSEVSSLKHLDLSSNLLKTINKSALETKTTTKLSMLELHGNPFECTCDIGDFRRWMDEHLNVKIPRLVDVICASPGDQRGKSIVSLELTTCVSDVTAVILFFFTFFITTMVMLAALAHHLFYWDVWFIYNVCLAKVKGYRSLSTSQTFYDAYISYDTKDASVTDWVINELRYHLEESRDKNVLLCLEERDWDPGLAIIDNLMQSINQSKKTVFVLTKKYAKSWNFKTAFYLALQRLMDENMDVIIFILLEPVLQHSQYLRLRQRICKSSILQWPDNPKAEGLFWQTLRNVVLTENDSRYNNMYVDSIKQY
- Assay Summary: Agonist activity at TLR8 (unknown origin)
EC50 strictly under 600 nM means rule met; at 600 nM or over means rule not met.

[
  {
    "Compound Structure String": "CCCCNc1nc(N)nnc1OCc1ccccc1",
    "Assigned Label": "rule not met"
  },
  {
    "Compound Structure String": "CCCCNc1nc(N)nnc1OCCCN(C)C",
    "Assigned Label": "rule met"
  },
  {
    "Compound Structure String": "CCCCNc1nc(N)nnc1OCCOC",
    "Assigned Label": "rule not met"
  },
  {
    "Compound Structure String": "CCCCNc1nc(N)nnc1OCc1ccccc1OC",
    "Assigned Label": "rule not met"
  },
  {
    "Compound Structure String": "CCOC(=O)C1=Cc2ccc(-c3cccc(C#N)c3)cc2N=C(N)C1",
    "Assigned Label": "rule not met"
  },
  {
    "Compound Structure String": "CCC[C@H](CCO)Nc1nc(N)nnc1OCc1nccc(OC)c1OC",
    "Assigned Label": "rule met"
  }
]
